biological target: CREBBP (1084-1701) (Homo sapiens); construct: measured in the following biochemical assay using CREBBP (1084-1701); purchased; assay: Biochemical assay for CREBBP (1084-1701), SAMDI; conditions: SAMDI, read-out: CREBBP Biochemistry IC50
Sequence (Q92793 1084-1701): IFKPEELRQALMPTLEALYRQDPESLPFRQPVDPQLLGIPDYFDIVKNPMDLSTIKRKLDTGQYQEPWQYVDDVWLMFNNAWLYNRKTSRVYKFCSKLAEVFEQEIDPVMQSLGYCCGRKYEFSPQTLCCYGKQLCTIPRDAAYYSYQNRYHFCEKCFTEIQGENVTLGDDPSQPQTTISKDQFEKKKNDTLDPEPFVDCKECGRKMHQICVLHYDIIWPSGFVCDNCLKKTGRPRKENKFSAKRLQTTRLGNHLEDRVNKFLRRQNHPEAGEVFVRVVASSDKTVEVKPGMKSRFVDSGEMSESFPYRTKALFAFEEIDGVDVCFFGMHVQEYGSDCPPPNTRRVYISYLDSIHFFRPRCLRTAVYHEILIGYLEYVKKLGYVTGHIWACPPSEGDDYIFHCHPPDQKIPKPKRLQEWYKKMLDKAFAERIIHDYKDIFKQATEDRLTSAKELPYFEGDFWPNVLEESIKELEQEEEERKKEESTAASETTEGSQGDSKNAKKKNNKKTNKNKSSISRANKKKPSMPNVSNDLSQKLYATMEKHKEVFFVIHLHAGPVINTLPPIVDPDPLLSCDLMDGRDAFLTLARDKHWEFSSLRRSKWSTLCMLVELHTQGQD
MEASUREMENT KIND: pIC50
Numbers only, as −log10 of the molar value.

Value sought for every listed molecule: pIC50.
1. CCn1ncc(CN(C)C(=O)c2nc(-c3ccccn3)nc3cc(Cl)ccc23)c1C [Compound 327]
2. CCn1ncc(CN(C)C(=O)c2nc(-c3cc(C)cc(NC4CNC(=O)C4)c3)nc3ccc(Cl)cc23)c1C (stereo not shown) [Compound 539]
3. CNc1[nH]nc2ccc(-c3nc(C(=O)N(C)Cc4cnc(C5CC5)n4C)c4cc(COC)ccc4n3)cc12 [Compound 616]
4. CCn1ncc(CN(C)C(=O)c2nc(-c3nc4c[nH]nc4cc3C)nc3ccc(Cl)cc23)c1C [Compound 522]

3.82
7.52
7.60
4.58

Reference source: patent US20220144812A1
